Values from ChEMBL document CHEMBL1155183

# tested on: Cannabinoid receptor 1 (Homo sapiens)
# Sequence (P21554 whole entry): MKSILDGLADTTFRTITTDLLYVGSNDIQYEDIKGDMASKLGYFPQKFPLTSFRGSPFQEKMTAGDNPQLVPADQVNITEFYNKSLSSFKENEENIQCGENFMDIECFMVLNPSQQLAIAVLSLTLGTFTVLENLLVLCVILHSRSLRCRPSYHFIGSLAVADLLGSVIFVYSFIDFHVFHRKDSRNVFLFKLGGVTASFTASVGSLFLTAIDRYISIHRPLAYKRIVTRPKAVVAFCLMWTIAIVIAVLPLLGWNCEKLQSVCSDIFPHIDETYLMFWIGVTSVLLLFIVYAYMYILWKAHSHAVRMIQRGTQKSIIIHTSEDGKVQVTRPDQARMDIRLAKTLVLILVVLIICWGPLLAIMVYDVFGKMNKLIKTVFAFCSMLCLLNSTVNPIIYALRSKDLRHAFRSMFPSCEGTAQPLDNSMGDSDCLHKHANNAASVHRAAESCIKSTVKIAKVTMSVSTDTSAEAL
# measurement description: Antagonist activity at human CB1 receptor expressed in CHO cells assessed as inhibition of CP-55940-induced [3H]arachidonic acid release
# Assay type: functional, cell-based
# conditions used: read-out: pA2 (converted)
measurement label: Kb (nM)

> print(dat)
                                   compound  measurement.label  measured.result
1  CNC(=NS(=O)(=O)N1CCC(F)(F)CC1)N1CCC(c2ccccc2)C(c2ccc(Cl)cc2)=N1 (centres undefined)                 Kb                1
2  CN/C(=N\S(=O)(=O)c1ccc(Cl)cc1)N1CCC(c2ccccc2)C(c2ccc(Cl)cc2)=N1 (centres undefined)                 Kb                1

I = CN=C(NS(=O)(=O)N1CCC(F)(F)CC1)N1CC(c2ccccc2)C(c2ccc(Cl)cc2)=N1 (centres undefined)
II = CNC(=NS(=O)(=O)N1CCCCC1)N1CCC(c2ccccc2)C(c2ccc(Cl)cc2)=N1 (centres undefined)
Exercise: Min Kb? I | II Bench note: the answer is the label of the chosen record.
Solution: I
